Target: human T-bet (Homo sapiens, UniProt Q9UL17)
Construct: expressed in transfected cells; host or cells: engineered HEK cells (HEKT-bet)
Sequence (Q9UL17 1-535): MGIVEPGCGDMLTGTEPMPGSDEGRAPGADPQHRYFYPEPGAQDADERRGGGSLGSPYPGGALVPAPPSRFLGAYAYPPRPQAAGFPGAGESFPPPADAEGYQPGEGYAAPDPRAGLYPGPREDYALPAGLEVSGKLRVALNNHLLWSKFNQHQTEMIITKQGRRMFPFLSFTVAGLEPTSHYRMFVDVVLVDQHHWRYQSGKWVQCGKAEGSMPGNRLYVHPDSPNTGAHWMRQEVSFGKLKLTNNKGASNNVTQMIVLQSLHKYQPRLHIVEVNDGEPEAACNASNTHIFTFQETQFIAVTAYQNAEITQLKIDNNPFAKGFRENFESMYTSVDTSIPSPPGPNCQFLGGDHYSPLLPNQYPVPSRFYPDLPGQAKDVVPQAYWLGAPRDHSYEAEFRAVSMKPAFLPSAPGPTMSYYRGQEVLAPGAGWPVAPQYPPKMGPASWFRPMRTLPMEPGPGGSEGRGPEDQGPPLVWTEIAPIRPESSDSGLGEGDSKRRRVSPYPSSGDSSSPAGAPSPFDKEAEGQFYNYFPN
Assay: HEKT-bet-luc assay (T-bet dependent luciferase reporter in engineered HEK cells)
Assay type: cell-based
Conditions: Table 4; HEKT-bet cells, compound 24 hours; IC50 normalized to reference ER-213038; read-out: IC50
Quick reference for pIC50 among some compounds
pIC50 is a log-scale quantity: -log10 of the concentration expressed in molar.

// worked examples, pIC50 included
# compound, pIC50
data = [
    ("COCCN1C(=O)N(Cc2cccc(OC)c2)C(=O)C12CCN(Cc1cccc(-c3ccc(S(C)(=O)=O)cc3)c1)CC2 [Example 224]", 6.43),
    ("O=C1N(C/C=C/c2ccccc2)C(=O)C2(CCN(Cc3cccc4ccccc34)CC2)N1Cc1cccnc1 [Example 185]", 6.63),
    ("COCCN1C(=O)N(CCCc2ccccc2)C(=O)C12CCN(Cc1cccc(OC)c1)CC2 [Example 300]", 6.22),
]

Proceeding to the next compound to report its pIC50.
Exercise: Please give the measured pIC50 for this compound: COCCN1C(=O)N(Cc2cccc(OC)c2)C(=O)C12CCN(Cc1cccc(C)c1)CC2 [Example 233]
Key: 6.41
